Known Ki of a selection of molecules
# ASSAYED_SYSTEM: Alpha-2C adrenergic receptor (Rattus norvegicus, UniProt P22086)
# Sequence (P22086 whole entry): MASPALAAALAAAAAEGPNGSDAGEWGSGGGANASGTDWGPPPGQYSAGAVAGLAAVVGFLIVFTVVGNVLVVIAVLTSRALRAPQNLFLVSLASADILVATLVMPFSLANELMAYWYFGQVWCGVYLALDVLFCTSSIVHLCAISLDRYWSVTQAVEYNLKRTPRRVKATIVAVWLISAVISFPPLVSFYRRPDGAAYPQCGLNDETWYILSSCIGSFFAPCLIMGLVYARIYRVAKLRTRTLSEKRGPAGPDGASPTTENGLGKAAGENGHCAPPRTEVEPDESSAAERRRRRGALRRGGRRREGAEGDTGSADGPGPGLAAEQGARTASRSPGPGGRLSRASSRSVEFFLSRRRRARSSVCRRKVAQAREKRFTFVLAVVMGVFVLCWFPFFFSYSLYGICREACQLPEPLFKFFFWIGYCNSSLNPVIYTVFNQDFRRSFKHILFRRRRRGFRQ

MOLECULE	Ki
COc1ccc(C(CN(C)C)C2(O)CCCCC2)cc1 (configuration not stated) [NSC_62923]	> 10 µM
CNCCCN1c2ccccc2CCc2ccccc21 [Desmethylimipramine]	> 10 µM

Source: BindingDB's records for doi:10.1016/0006-2952(86)90769-0
